Biological target: T1, human CD3e/g (human, UniProt P07766 23-126; P09693 23-116)
T1 construct: Bought soluble protein; also called hCD3e/g; human CD3e/g (Acro CDD-C52W4)
T1 sequence (P07766 23-126, chain 1 of 2): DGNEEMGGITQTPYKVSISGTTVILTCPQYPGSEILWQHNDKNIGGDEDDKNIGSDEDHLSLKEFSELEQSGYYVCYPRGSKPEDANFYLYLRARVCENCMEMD
T1 sequence (P09693 23-116, chain 2 of 2): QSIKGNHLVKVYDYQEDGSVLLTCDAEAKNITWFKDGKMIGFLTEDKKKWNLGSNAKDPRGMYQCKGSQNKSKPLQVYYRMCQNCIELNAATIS
Test: SPR (Carterra LSA), mAb on chip
measured.quantity: Kd (nM)
Give your result in nM as a bare value.

mAb 222 (antibody, V domains shown, VH and VL only) VH: QVQLVESGGGVVQPGRSLRLSCAASGFTFSGYGMHWVRQAPGKGLEWVAIIYYNGKKEYYADSVKGRFTISRDNSKNTVYLQMNSLRAEDTAVYYCTRGEGYNWFDPWGQGTLVTVSS VL: KIVMTQSPATLSVSPGERATLSCRASQSVSSNLAWYQQKPGQAPRLLIYGASTRATGIPARFSGSGSGTEFTLTISSLQSEDFAVYYCKQYNNWPLTFGGGTKVEIK    8.2

Prompt: Quick one: Kd of mAb 251 (antibody, V domains shown, VH and VL only) VH: EVQILESGGGLVQPGGSLRLSCVASGFTFRSYVMSWVRRAPGRGLEWVSGISASGGNTYYADSVKGRFTISRDNSKNTLFLQMNGLRAEDTAVYYCAKLFSYYYYFMDVWGKGTTVTVSS VL: SYELTQPLSVSVALGQTARITCGGNNIGSKDVHWYQQKPGQAPVLVIYRDSNRPSGIPERFSGSNSGNTATLTISGAQAGDEADYYCQVWDRRTAVFGGGTQLTAL ?
Response: 8.1

Prompt: Quick one: Kd of mAb 194 (antibody, V domains shown, VH and VL only) VH: QEQLVESGGGVVQPGGSLRLSCAASGFIFSGYGMHWVRQAPGKGLEWVAIIWYNGRKTYYAESVKGRFTISRDNSKNTLSLQMNSLRVEDTAVYYCTAGQGYNWFDPWGQGTLVTVSS VL: EIVMTQSPATLSVSPGERATLSCRASQSVSSNLAWYQQKPGQAPRLLIYGASTRATGIPARFSGSGSGTEFTLTISSLQSEDFAVYYCQQFNAWPLTFGGGTKMEIK ?
Response: 12
